TARGET_OF_ASSAY: M5 muscarinic receptor (Homo sapiens)
ASSAY_OVERVIEW: accumulation of IPX, M5 CHO cells (M5Gq)
Assay type: cell-based
Set-up: host or cells: CHO cells, stably transfected
RUN_CONDITIONS: M5 (↑IPX), preferential response, relative to carbachol; Tables 2, 3, 7
QUANTITY_NAME: RAi
Just the number, please, no unit attached.

Worked cases, RAi given:
COMPOUND | QUANTITY_NAME | RESULT_NUMBER
C1=CCN(Cc2cccs2)CC1.Cl | RAi | 0.0025
Brc1ccc(CN2CC=CCC2)s1.Cl | RAi | 0.0009
Cc1ccc(C[N+]2(C)CC=CCC2)s1.[I-] (centres unmarked) | RAi | 0.0021
C[N+]1(Cc2ccc(Cl)s2)CC=CCC1.[I-] (centres unmarked) | RAi | 0.0049
O=C1CCCN1CC#CCN1CCCC1 [oxotremorine, reference compound] | RAi | 4.12
Cc1csc(CN2CC=CCC2)c1.Cl | RAi | 0
Cc1ccc(CN2CC=CCC2)s1.Cl | RAi | 0.0009

Here is the next item to consider.
Inquiry: Consider the compound C[N+]1(Cc2ccc(Br)s2)CC=CCC1.[I-] (centres unmarked) and give its recorded RAi.
Reply text: 0.0013

###

Overview of reported log10(EC50) across a group of compounds:
TARGET_OF_ASSAY: M2 muscarinic receptor (Homo sapiens, UniProt P08172)
ASSAY_OVERVIEW: inhibition of forskolin-stimulated cAMP, M2 CHO cells (M2Gi)
Assay type: cell-based
Parameters: host or cells: CHO cells, stably transfected
RUN_CONDITIONS: M2 (↓cAMP), preferential response, Table 7; read-out: pEC50 (converted)
The common logarithm of EC50 in nM is what is listed.

Worked cases, log10(EC50) given:
COMPOUND | TARGET_OF_ASSAY | log10(EC50)
Cc1ccc(CN2CC=CCC2)s1.Cl | M2 muscarinic receptor (Homo sapiens, UniProt P08172) | 3.96
C1=CCN(Cc2cccs2)CC1.Cl | M2 muscarinic receptor (Homo sapiens, UniProt P08172) | 2.86
C[N+]1(Cc2cccs2)CC=CCC1.[I-] (stereo not drawn) | M2 muscarinic receptor (Homo sapiens, UniProt P08172) | 2.59

Inquiry: Consider the compound Cc1ccc(C[N+]2(C)CC=CCC2)s1.[I-] (stereo not drawn) and give its recorded log10(EC50).
Reply text: 2.97

Inquiry: Consider the compound C[N+]1(Cc2ccc(Br)s2)CC=CCC1.[I-] (stereo not drawn) and give its recorded log10(EC50).
Reply text: 3.21

Inquiry: Consider the compound `Brc1ccc(CN2CC=CCC2)s1.Cl` and give its recorded log10(EC50).
Reply text: 3.34

###

TARGET_OF_ASSAY: M2 muscarinic receptor (Homo sapiens)
ASSAY_OVERVIEW: [3H]NMS competition binding, M2 CHO membranes
Parameters: host or cells: CHO cells, stably transfected
RUN_CONDITIONS: competition with 1 nM [3H]NMS; read-out: Inhibition constants (Ki) as negative logarithms, M2 (converted)
QUANTITY_NAME: Ki (µM)
Provide only the numeric value, understood in µM.

COMPOUND | Ki [µM]
Cc1ccc(C[N+]2(C)CC=CCC2)s1.[I-] (stereo not shown) [Compound 7B] | 2.29
Cc1csc(CN2CC=CCC2)c1.Cl [Compound 6E] | 12.6
C[N+]1(Cc2ccc(Br)s2)CC=CCC1.[I-] (stereo not shown) [Compound 7C] | 0.933
Cc1ccc(CN2CC=CCC2)s1.Cl [Compound 6B] | 10.2
C1=CCN(Cc2cccs2)CC1.Cl [Compound 6A] | 42.7

Inquiry: Consider the compound Brc1ccc(CN2CC=CCC2)s1.Cl [Compound 6C] and give its recorded Ki.
Reply text: 10

Inquiry: Consider the compound C[N+]1(Cc2cccs2)CC=CCC1.[I-] (stereo not shown) [Compound 7A] and give its recorded Ki.
Reply text: 7.94

###

TARGET_OF_ASSAY: M2 muscarinic receptor (Homo sapiens)
ASSAY_OVERVIEW: accumulation of IPX, M2 CHO cells with promiscuous G15 G-protein (M2Gq+G15)
Type: cell-based
Design: expressed in transfected cells; host or cells: CHO cells, pCMV/hygro vector, hygromycin selection
QUANTITY_NAME: pKd
In simple prose, pKd is minus the logarithm base ten of a concentration in moles per litre.

Inquiry: Consider the compound O=C1CCCN1CC#CCN1CCCC1 [oxotremorine, reference compound] and give its recorded pKd.
Reply text: 6.70

###

TARGET_OF_ASSAY: M5 muscarinic receptor (Homo sapiens, UniProt P08912)
ASSAY_OVERVIEW: inhibition of forskolin-stimulated cAMP, M5 CHO cells (M5Gi)
Format: cell-based
Set-up: host or cells: CHO cells, stably transfected
RUN_CONDITIONS: M5Gi (↓cAMP), Table 8
Overview of reported τ across a group of compounds:

Inquiry: Consider the compound C[N+]1(Cc2cccs2)CC=CCC1.[I-] (stereo not shown) [Compound 7A] and give its recorded τ.
Reply text: 0.59 ± 0.02

Inquiry: Consider the compound O=C1CCCN1CC#CCN1CCCC1 [oxotremorine, reference compound] and give its recorded τ.
Reply text: 0.31 ± 0.03

Inquiry: Consider the compound C1=CCN(Cc2cccs2)CC1.Cl [Compound 6A] and give its recorded τ.
Reply text: 0.31 ± 0.04

Inquiry: Consider the compound C[N+](C)(C)CCOC(N)=O [carbachol, reference compound] and give its recorded τ.
Reply text: 0.24 ± 0.03

###

TARGET_OF_ASSAY: M2 muscarinic receptor (Homo sapiens, UniProt P08172)
Sequence (P08172 1-466): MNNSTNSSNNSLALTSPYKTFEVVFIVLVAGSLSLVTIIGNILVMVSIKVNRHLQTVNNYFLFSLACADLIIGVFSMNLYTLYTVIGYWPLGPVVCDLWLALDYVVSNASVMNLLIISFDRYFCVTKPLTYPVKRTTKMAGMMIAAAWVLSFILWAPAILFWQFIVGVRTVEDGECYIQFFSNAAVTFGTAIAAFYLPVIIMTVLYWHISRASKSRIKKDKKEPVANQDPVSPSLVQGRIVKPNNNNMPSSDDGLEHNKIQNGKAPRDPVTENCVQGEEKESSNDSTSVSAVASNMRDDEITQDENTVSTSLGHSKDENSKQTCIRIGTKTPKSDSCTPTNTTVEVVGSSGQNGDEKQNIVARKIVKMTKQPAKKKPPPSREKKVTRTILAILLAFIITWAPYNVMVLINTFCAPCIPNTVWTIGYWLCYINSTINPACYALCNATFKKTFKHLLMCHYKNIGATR
ASSAY_OVERVIEW: inhibition of forskolin-stimulated cAMP, M2 CHO cells (M2Gi)
Assay type: cell-based
Design: host or cells: CHO cells, stably transfected
Overview of reported Kd across a group of compounds:
Provide only the numeric value, understood in µM.

Inquiry: Consider the compound O=C1CCCN1CC#CCN1CCCC1 [oxotremorine, reference compound] and give its recorded Kd.
Reply text: 0.0126

Inquiry: Consider the compound C[N+]1(Cc2ccc(Cl)s2)CC=CCC1.[I-] (centres unmarked) and give its recorded Kd.
Reply text: 6.31

###

TARGET_OF_ASSAY: M2 muscarinic receptor (Homo sapiens)
ASSAY_OVERVIEW: accumulation of IPX, M2 CHO cells with promiscuous G15 G-protein (M2Gq+G15)
Assay type: cell-based
Parameters: expressed in transfected cells; host or cells: CHO cells, pCMV/hygro vector, hygromycin selection
QUANTITY_NAME: pEC50
In simple prose, pEC50 is minus the logarithm base ten of a concentration in moles per litre.

Inquiry: Consider the compound O=C1CCCN1CC#CCN1CCCC1 [oxotremorine, reference compound] and give its recorded pEC50.
Reply text: 7.15

###

TARGET_OF_ASSAY: M5 muscarinic receptor (Homo sapiens)
Sequence (P08912 1-532): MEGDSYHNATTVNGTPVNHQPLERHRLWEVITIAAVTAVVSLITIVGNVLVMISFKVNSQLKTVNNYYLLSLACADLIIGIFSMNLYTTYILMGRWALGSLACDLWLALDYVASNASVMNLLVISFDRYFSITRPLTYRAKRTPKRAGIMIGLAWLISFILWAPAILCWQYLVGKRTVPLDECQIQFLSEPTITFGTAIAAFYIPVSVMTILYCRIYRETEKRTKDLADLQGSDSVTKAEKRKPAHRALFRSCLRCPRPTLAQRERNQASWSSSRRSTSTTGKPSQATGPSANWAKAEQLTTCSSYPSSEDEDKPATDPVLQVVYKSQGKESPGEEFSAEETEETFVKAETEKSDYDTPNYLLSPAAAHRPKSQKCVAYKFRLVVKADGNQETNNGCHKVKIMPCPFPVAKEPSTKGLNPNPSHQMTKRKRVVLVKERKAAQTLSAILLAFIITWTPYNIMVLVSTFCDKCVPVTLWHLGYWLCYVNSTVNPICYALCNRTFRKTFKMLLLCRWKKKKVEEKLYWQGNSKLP
ASSAY_OVERVIEW: inhibition of forskolin-stimulated cAMP, M5 CHO cells (M5Gi)
Format: cell-based
Design: host or cells: CHO cells, stably transfected
QUANTITY_NAME: pKd
In simple prose, pKd is minus the logarithm base ten of a concentration in moles per litre.

Inquiry: Consider the compound O=C1CCCN1CC#CCN1CCCC1 [oxotremorine, reference compound] and give its recorded pKd.
Reply text: 7.00
